Sourced from paper PMC4336329

# testedOn: human ether-à-go-go-related gene (hERG) potassium channel (human)
# Sequence (Q12809 whole entry, looked up): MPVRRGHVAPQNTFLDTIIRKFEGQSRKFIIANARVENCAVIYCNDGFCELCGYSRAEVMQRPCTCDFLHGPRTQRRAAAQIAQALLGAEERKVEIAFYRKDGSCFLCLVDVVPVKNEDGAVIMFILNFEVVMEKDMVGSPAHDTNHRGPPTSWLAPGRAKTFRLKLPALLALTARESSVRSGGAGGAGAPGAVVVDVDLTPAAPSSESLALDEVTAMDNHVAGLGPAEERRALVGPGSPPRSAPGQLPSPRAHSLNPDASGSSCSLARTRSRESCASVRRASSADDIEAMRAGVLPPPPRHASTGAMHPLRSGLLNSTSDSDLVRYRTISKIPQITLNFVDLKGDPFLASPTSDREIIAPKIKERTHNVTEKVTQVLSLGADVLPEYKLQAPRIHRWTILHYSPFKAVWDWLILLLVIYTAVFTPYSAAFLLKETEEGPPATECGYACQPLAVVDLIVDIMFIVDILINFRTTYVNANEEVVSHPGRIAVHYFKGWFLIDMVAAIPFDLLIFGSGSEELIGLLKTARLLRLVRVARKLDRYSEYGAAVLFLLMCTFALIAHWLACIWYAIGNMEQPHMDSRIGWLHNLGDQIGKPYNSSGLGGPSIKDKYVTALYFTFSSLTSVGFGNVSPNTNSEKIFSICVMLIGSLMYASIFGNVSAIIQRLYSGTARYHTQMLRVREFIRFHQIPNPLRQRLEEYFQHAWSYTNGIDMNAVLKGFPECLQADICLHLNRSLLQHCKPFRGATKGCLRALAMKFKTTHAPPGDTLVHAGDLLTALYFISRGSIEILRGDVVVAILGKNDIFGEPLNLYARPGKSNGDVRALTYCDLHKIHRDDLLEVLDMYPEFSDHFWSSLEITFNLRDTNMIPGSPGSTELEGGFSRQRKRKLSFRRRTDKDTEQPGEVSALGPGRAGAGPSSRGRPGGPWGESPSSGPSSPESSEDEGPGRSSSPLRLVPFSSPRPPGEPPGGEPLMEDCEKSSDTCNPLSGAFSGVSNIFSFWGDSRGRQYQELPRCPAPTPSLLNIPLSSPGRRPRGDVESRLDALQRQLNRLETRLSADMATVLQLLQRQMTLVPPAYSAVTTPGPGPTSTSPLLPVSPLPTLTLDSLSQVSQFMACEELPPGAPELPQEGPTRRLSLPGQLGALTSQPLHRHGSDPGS
# testMethodNotes: primary screen, population patch clamp on CHO cells stably expressing hERG; higher = less effect of the substance;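 further: peak tail current of the secondary pulse compared with the same well before compound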
Hit rate of the full screen: of about 310,000 compounds, about 14,000 (4.5%) showed an effect of 50% or more. The effect is printed as a negative number. The sample holds strong results, similar compounds and a random draw of the others, so the mix is not that of the screen.
measuredParameter: hERG current change (%, negative = inhibition) at 10uM (%)

1) O=C(O)c1c2c(nc3ccc(Cl)cc13)CCC2
4.39
2) O=C(c1cccs1)N1CCC(c2nc(-c3ccc(S(=O)(=O)N4CCOCC4)cc3)no2)CC1
-68.8
3) COc1ccccc1N(CC(=O)NC1CCCCC1)C(=O)CCC(=O)Nc1nccs1
-2.17
4) CC1CCN(C2CC(=O)N(c3ccc(Br)cc3Br)C2=O)CC1 (stereo not shown)
2.17
5) CCOC(=O)Cn1ncc2c(=O)oc3ccccc3c21
-0.743
6) O=C(c1ccc2nccnc2c1)N1CCCC(N2CCN(c3ccc(F)cc3)CC2)C1 (stereo not shown)
-9.66
7) CCOc1ccccc1N(CC)C(=O)Cn1ncc2c(=O)oc3ccccc3c21
-26.1
8) COc1ccc(OC)c(-n2nnnc2SCC(=O)NCCc2ccccc2)c1
-20.3
9) COC(=O)CSc1nnc(-c2ccccn2)n1Cc1ccco1
-13.8
10) CS(=O)(=O)O.O=C(O)c1ccc2c(c1)c1c3n2CCNC3CCC1 (stereo not shown)
20.7
11) C=CCc1cccc(CNc2nc3ccccc3n2CCN2CCOCC2)c1O
-6.61
12) CCn1c2c(c3cc(Cl)ccc31)CCCC2=O
3.71
13) CCCCc1ccc(NC(=O)CC(C)C)cc1
-6.78
14) c1coc(CNc2nc3ccccc3n2CCN2CCOCC2)c1
-33.2
15) COc1cccc(C(=O)N/N=C/c2ccc(OC)c(COc3ccccc3C(N)=O)c2)c1
-2.25
16) CCCCc1ccc(NC(=O)OC)cc1
-9.08
17) CSc1nsc(SCC(=O)Nc2nc3ccccc3s2)n1
9.66
18) CCn1c(=N)c(C(=O)NCCCOC)cc2c(=O)n3cccc(C)c3nc21
-61.4
19) CCOC(=O)CC1COCCN1C(=O)c1ccc2oc(Cc3ccccc3)nc2c1 (stereo not shown)
1.91
20) O=C(CCc1c[nH]c2ccccc12)NCc1ccco1
32.4
21) CC(C)(O)C#Cc1ccc(CN2CCN(Cc3ccccc3)C(CCO)C2)s1 (stereo not shown)
4.64
22) CCCCC(CC)C(=O)Nc1ccc(Nc2ccccc2)cc1 (stereo not shown)
-12.8
23) c1ccc(Cn2c(CNc3nc4ccccc4n3CCN3CCCCC3)nc3ccccc32)cc1
-68.5
24) CS(=O)(=O)O.c1ccc(-c2ccc3c(c2)c2c4n3CCN=C4CCC2)cc1
-61.5
25) COc1cc(C)c(Br)cc1S(=O)(=O)NCCCN1CCOCC1
9.66
26) CCN(CC)CCn1c(NCc2nc3ccccc3n2Cc2ccccc2)nc2ccccc21
-2.44
27) c1cc2c(cc1C1CCCCC1)c1c3n2CCN=C3CCC1
-33.9
28) CCCCc1nc(Cl)c(C#N)c2c1CSC(C)(C)C2
-13.1
29) CCc1nc(N2CCNCC2)c(C#N)c2c1CSC(C)(C)C2
2.02
30) CCCCc1ccc(NC(=O)C(C)CC)cc1 (stereo not shown)
-50.5
31) CCCCN(Cc1ccco1)C(=O)Cn1ncc2c(=O)oc3ccc(C)cc3c21
13.2
32) COC(=O)C1CCN(C(=O)N2CCOCC2)CC1
5.68
33) CC(=O)Nc1ccc(C(=O)CSc2nc3ccccc3n2CC(=O)N2CCCC2)cc1
11.1
34) Cc1nnc2ccc(Oc3ccc(-c4ccccc4)cc3)nn12
-5.63
35) CC(C)n1c(NCc2nc3ccccc3n2C)nc2ccccc21
-46.4
36) C=CCn1c(=N)c(C(=O)OCC)cc2c(=O)n3cccc(C)c3nc21
-72.9
37) CCCCC(CC)C(=O)Nc1ccccc1C#N (stereo not shown)
-4.83
38) CC(C)c1nc(N2CCOCC2)c(C#N)c2c1COC(C)(C)C2
9.56
39) O=C(N1CCOCC1)N1CCC(c2nc(-c3ccc(S(=O)(=O)N4CCOCC4)cc3)no2)CC1
-2.07
40) Cn1c(CNc2nc3ccccc3n2CCN2CCCCC2)nc2ccccc21
-65
41) CCCCC(CC)C(=O)Nc1ccc(C#N)cc1 (stereo not shown)
-52.5
42) Fc1ccc(NC(=S)N/N=C/c2cccc(Br)c2)c(F)c1
3.9
43) c1ccc(Cn2c(CNc3nc4ccccc4n3CCN3CCOCC3)nc3ccccc32)cc1
-84.3
